Every entry's value here was drawn from BindingDB's records for PubMed 2905002.

Consider the following pKi values measured on UniProt P14842.
Sequence (P14842 whole entry): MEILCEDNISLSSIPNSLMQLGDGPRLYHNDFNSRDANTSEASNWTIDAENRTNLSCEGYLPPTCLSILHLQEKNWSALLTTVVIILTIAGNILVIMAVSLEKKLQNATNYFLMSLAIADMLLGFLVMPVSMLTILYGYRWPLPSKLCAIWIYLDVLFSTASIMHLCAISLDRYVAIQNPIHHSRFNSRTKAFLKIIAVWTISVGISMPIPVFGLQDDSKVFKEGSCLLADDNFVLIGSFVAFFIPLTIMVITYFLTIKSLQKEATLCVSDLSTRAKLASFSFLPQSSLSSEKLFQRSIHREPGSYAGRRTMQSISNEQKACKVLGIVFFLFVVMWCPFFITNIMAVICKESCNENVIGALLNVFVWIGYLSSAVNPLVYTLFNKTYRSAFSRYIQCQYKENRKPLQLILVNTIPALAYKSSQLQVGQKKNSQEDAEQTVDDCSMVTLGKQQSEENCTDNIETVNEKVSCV
pKi field: float, defined as -log10 of concentration (mol/L).

{"columns": ["compound", "pKi"],
 "data": [
  ["CN1CCc2cc(Cl)c(O)cc2[C@@H](c2ccccc2)C1 [SCH 23390,R(+)]", 7.88]
]}

Query: Requested field: pKi. Item: CN1CCc2cc(Cl)c(O)cc2[C@H]2c3ccccc3CC[C@@H]21
Reply: 6.49
